tested on: Key Grass and Sedge Weeds as well as Grass Crops; assay: Post-Emergent Test II: postemergent herbicidal activity, visual rating after 14 d (Table 8); format: in vivo; conditions: post-emergence, 336 h, barnyardgrass (Echinochloa crus-galli), 70 g ai/ha, read-out: Visual Growth Reduction (%) 14 Days After Application ECHCG
Listed compounds paired with reported pest or weed control at 70 g/ha

Request: Param readout = pest or weed control at 70 g/ha; param system = Key Grass and Sedge Weeds as well as Grass Crops; param query = Nc1c(F)c(-c2cccc3c2OCO3)nc(C(=O)O)c1Cl ; response: value
Response: 0 to 29%

Request: Can you look up pest or weed control at 70 g/ha on Key Grass and Sedge Weeds as well as Grass Crops for Nc1c(F)c(-c2ccc3c(c2)OC(F)(F)O3)nc(C(=O)O)c1Cl ?
Response: 95 to 100%

Request: What pest or weed control at 70 g/ha appears in the records for this compound with Key Grass and Sedge Weeds as well as Grass Crops? COC(=O)c1nc(-c2ccc3c(c2F)OC(F)(F)O3)c(Cl)c(N)c1Cl
Response: 0 to 29%
